Test system: velvetleaf (Abutilon theophrasti, ABUTH)
Test Description: Pre-emerge test, greenhouse herbicide activity screening
Type: in vivo
Particulars: pre-emerge, 63 g ai/ha, 14 days after application, rating scale 0-100
phytotoxicity rating ABUTH listing for selected molecules.
Lab note: jot down the number only; don't add units.

Solved entries (count: 4):
INSERT INTO results (molecule, system_tested, outcome_measure, experimental_value) VALUES
  ('COc1c(Cl)cc(F)c(-n2c(=O)cc(C(F)(F)F)n(C)c2=O)c1O', 'velvetleaf (Abutilon theophrasti, ABUTH)', 'phytotoxicity rating ABUTH', 90),
  ('COc1c(Cl)cc(F)c(-n2c(=O)cc(C(F)(F)F)n(C)c2=O)c1NN=Cc1ccc2ccccc2c1', 'velvetleaf (Abutilon theophrasti, ABUTH)', 'phytotoxicity rating ABUTH', 100),
  ('COc1c(Cl)cc(F)c(-n2c(=O)cc(C(F)(F)F)n(C)c2=O)c1NN=C1CCc2ccccc2C1', 'velvetleaf (Abutilon theophrasti, ABUTH)', 'phytotoxicity rating ABUTH', 100),
  ('CCOC(=O)C(Cl)(CC(=O)OC)Cc1c(OC)c(Cl)cc(F)c1-n1c(=O)cc(C(F)(F)F)n(C)c1=O (centres unmarked)', 'velvetleaf (Abutilon theophrasti, ABUTH)', 'phytotoxicity rating ABUTH', 0);

As a next step, examine the molecule that follows.
Incoming: Given the entry COc1c(Cl)cc(F)c(-n2c(=O)cc(C(F)(F)F)n(C)c2=O)c1NNC(=O)c1ccc2ccccc2c1 , report its measured phytotoxicity rating ABUTH.
Outgoing: 100

Taken from patent US6355799B1.
